- Measurement Description: reversal of MRP1-mediated doxorubicin resistance, pilot screen, H69AR cells, doxorubicin co-treatment (AID 601)
- Run Parameters: H69AR cells + 2 uM doxorubicin, CellTiter-Glo, 72 h; at 10 µM; stronger effect = higher value
Measure Name: differential viability (reversal) (%)
Please respond with the number in % and leave the unit unwritten.

Inquiry: Specify differential viability (reversal) for COc1ccc(-n2cnnc2SCCC#N)cc1 and stop.
Reply text: 16.2

Inquiry: Specify differential viability (reversal) for Cc1ccc(CCSCC(=O)O)cn1 and stop.
Reply text: 2.9

Inquiry: Specify differential viability (reversal) for Cc1nc(Sc2cccn2C)c(C(F)(F)F)c(=O)[nH]1 and stop.
Reply text: 13.2

Inquiry: Specify differential viability (reversal) for O=C(c1cc(-c2ccco2)nn1-c1cccc(Cl)c1)N1CCCCC1 and stop.
Reply text: -25.9
